Source listed as paper PMC2749869.

Biological target: epidermal growth factor receptor (EGFR) (Homo sapiens, UniProt P00533, DEL746-750)
Construct: endogenous in cells
Sequence (P00533 with tags, fused parts or gaps DEL746-750): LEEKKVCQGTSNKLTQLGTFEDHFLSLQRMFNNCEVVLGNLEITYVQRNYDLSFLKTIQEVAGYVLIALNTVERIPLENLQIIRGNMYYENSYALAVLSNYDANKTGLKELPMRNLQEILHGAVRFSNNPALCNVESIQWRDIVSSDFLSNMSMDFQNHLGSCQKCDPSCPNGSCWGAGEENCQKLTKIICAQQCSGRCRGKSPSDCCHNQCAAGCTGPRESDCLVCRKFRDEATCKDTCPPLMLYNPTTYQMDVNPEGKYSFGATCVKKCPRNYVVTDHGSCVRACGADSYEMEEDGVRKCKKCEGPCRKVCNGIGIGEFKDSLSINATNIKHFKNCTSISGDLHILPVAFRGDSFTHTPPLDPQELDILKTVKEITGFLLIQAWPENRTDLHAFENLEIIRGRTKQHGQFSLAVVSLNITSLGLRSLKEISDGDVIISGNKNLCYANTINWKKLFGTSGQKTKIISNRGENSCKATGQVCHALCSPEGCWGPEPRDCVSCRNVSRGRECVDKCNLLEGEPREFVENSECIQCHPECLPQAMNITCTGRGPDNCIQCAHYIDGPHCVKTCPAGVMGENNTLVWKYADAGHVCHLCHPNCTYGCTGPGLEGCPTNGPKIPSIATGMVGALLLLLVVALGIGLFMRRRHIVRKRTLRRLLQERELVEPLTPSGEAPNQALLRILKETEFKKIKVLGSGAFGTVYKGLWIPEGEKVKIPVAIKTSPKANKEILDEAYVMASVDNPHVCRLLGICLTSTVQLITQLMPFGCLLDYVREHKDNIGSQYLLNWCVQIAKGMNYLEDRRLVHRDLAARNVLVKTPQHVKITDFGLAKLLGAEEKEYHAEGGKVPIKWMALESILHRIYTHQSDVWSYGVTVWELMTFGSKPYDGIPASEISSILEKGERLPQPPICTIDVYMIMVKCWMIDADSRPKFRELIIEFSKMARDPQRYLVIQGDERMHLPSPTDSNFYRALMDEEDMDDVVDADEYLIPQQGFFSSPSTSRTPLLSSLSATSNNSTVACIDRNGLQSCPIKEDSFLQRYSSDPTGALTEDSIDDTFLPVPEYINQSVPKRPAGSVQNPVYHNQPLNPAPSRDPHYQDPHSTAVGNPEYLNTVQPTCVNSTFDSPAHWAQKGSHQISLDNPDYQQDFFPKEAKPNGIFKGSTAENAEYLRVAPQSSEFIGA
Assay: Cellular EGFR phosphorylation in A-431 and HCC827 cells
Conditions: HCC827 cells; read-out: IC50 for inhibition of cellular EGFR phosphorylation
propertyName: IC50

# IC50 of "Nc1ncnc2c1c(-c1ccc3[nH]c(Cc4ccccc4Cl)nc3c1)nn2[C@H]1CC[C@H](N2CCOCC2)CC1" = > 10 µM

* * *

Target: CD8-IGF1R (Homo sapiens, UniProt P01732+P08069)
Construct: cytoplasmic domain of human IGF1R (amino acids 959-1368)
Sequence (P01732+P08069 fused): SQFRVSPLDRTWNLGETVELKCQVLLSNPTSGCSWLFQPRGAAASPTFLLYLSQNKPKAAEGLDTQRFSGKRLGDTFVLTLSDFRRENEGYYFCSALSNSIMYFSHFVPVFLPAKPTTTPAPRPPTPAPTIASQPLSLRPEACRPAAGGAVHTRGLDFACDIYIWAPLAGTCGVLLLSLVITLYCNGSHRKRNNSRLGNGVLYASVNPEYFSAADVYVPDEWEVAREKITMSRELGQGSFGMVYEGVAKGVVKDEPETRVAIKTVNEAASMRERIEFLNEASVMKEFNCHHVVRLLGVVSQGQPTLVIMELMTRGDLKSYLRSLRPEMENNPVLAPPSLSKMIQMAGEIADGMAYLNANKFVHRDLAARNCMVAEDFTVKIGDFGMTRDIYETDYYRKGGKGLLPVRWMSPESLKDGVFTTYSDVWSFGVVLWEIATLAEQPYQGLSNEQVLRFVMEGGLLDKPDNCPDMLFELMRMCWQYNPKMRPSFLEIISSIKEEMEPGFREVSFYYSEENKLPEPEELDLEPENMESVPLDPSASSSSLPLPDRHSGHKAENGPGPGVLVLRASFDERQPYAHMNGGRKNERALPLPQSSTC
Assay: Western blot of IGF1R pathway phosphorylation and Cyclin D1 in NIH-3T3 CD8-IGF1R cells
Settings: CD8-IGF1R cell line, 1 hour treatment; inhibition near known cellular IC50; read-out: cellular phosphorylation IC50 (dose-dependent inhibition of IGF1R phosphorylation)
pIC50: −log10 of the molar value.
propertyName: pIC50

The observed pIC50 for Nc1ncnc2c1c(-c1ccc3[nH]c(Cc4ccccc4Cl)nc3c1)nn2[C@H]1CC[C@H](N2CCOCC2)CC1 [A-928605] when tested with CD8-IGF1R (Homo sapiens, UniProt P01732+P08069) stands at ~7.00

* * *

pKi: −log10 of the molar value.
propertyName: pKi

The observed pKi for "Nc1ncnc2c1c(-c1ccc3[nH]c(Cc4ccccc4Cl)nc3c1)nn2[C@H]1CC[C@H](N2CCOCC2)CC1" when tested with IR (Homo sapiens, UniProt P06213) stands at > 8.00

* * *

Target: IGF1R (Homo sapiens, UniProt P08069)
Sequence (P08069 31-1367, species assumed): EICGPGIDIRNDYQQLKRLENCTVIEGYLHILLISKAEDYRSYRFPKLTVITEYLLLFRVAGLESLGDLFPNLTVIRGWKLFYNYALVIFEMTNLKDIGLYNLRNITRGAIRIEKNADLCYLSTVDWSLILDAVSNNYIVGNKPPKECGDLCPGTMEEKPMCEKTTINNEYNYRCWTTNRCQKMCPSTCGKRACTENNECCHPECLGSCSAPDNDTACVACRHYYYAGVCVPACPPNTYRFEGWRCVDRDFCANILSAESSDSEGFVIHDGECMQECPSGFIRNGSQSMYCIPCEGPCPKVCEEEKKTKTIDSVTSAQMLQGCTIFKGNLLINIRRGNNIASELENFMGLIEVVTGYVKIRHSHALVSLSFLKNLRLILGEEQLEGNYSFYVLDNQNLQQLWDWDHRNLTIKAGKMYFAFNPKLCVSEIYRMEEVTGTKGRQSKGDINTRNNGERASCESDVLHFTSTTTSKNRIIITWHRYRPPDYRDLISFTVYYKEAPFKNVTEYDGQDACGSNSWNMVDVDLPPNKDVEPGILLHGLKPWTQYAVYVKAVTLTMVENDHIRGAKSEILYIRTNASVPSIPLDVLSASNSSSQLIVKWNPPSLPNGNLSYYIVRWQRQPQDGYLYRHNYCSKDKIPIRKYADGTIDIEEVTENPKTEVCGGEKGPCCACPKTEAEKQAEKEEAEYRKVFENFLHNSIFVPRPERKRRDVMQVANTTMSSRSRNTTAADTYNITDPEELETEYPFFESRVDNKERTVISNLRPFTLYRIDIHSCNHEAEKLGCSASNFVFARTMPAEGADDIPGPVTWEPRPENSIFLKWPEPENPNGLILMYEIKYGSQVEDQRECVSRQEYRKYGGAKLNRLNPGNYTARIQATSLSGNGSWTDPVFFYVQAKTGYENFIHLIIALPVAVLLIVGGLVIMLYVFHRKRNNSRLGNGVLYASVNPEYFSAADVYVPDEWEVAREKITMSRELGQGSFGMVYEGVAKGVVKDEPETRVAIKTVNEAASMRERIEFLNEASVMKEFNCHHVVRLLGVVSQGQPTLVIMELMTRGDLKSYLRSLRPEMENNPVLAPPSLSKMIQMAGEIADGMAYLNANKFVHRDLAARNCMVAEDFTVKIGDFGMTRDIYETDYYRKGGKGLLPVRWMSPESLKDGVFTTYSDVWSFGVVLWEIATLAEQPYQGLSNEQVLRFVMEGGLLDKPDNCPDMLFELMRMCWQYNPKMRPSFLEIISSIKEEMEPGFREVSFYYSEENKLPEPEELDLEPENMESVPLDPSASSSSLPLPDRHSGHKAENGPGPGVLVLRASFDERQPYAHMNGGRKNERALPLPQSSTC
propertyName: Ki

# Ki of "Nc1ncnc2c1c(-c1ccc3[nH]c(Cc4ccccc4Cl)nc3c1)nn2[C@H]1CC[C@H](N2CCOCC2)CC1" = < 10 nM
